Hey, just so you know, these numbers are from PubChem BioAssay (NCI).

Test: NCI Yeast Anticancer Drug Screen. Data for the mec2-1 strain (AID 157)
Conditions: S. cerevisiae mec2-1 strain, at 5.0 µM (retest, dose inferred, filed as 0.5), hits give high values
Experimental: Growth inhibition of yeast strains with defined genetic alterations is measured as a screen for potential anti-cancer activity. Selected strains with alterations in DNA damage repair or cell cycle control were exposed to compounds and growth inhibition was measured relative to vehicle treated controls. The strain used in this assay is mec2-1
This is part of a sample that, as a whole, favours compounds with a hit. Of some 79,000 tested, about 15% had one in any assay.
Binary call on growth inhibition: Satisfied from 10% upward, Not satisfied beneath that.

Field: example entries. Status: answers known.
1) c1ccc(CCC2=Nc3ccccc3CO2)cc1 ... Not satisfied
2) C/C(=N\OS(=O)(=O)O)SC1OC(CO)C(O)C(O)C1O (stereo not drawn) ... Not satisfied
3) CC(C)(C)NCc1cc(C(C)(C)C)cc(-c2ccc(Cl)cc2)c1O ... Satisfied

Decide: is the reported value of growth inhibition for `O=C(O)C1CCCCC1.[Ag]` equal to or greater than 10%?
Satisfied

For this molecule, is measured growth inhibition 10% or higher? `COc1ccc(-c2nc3c(C(=O)NCCN(C)C)cccc3c3ccccc23)cc1`
Satisfied

Decide: is the reported value of growth inhibition for `COc1ccc(CCCC(=O)O)c2c(OC)cccc12` equal to or greater than 10%?
Not satisfied

Is growth inhibition at least 10%? Consider CC1CC(N)=NC1C(=O)NCCC#N (stereo not drawn)
Satisfied

# bool: growth inhibition of `O=c1c2cc(Br)ccc2ncn1COCc1ccccc1` >= 10%
Satisfied

Given the entry `C=C(c1ccc2nc(NC(=O)OC)[nH]c2c1)c1cccs1` , answer whether its growth inhibition meets or surpasses 10%.
Not satisfied

In plain terms: is recorded growth inhibition at least 10% for `C#CCn1cnc2c(N)ncnc21` ?
Not satisfied

Does the molecule `CCOC(=O)CC(=O)/C=C/c1ccncc1` have recorded growth inhibition that is 10% or more?
Not satisfied

// inclusive: growth inhibition at least 10%? input: `Cc1ccc2nc(-c3ccc(N)cc3)sc2c1`
Not satisfied

###

Assay: NCI Yeast Anticancer Drug Screen. Data for the rad50 strain (AID 155);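 note: 0% = growth of vehicle-only cultures of the same strain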
Settings: S. cerevisiae rad50 strain growth inhibition; at 50.0 µM; hits give high values
The panel holds about 79,000 compounds, 15% with a hit somewhere; the sample as a whole holds those more often.
measure: growth inhibition (%)
Numbers only, in %.

// known answers, use as guide
1. CSc1cccc(N2C(=O)C=CC2=O)c1 ... 91.5
2. CC(=O)Nc1c([N+](=O)[O-])cc2c3c(cccc13)C=C2 ... 24.8
3. CC(=O)N/N=C/c1ccc([N+](=O)[O-])o1 ... 70.2
4. CC(c1ccc2cccc(F)c2c1)c1ccccc1C(=O)O (configuration not stated) ... 99
5. CC(C)CCCOC(=O)c1cc([N+](=O)[O-])cc([N+](=O)[O-])c1 ... 67.8

Dear colleague, could you please provide growth inhibition for the compounds listed below?
1. CCCC/C=C(\CCCNCCCC)[Si](C)(C)C
2. CC1=NN(c2ccccc2)C(=O)C12[C@H](c1ccccc1)C2(C#N)C#N (some centres not stated)
3. Oc1ccc2cc(Br)ccc2c1O
4. O=c1oc2ccccc2c(O)c1/C=N/C(=S)NCc1ccccc1
5. Cc1ccccc1NC(=O)c1cc2cc(N=Nc3ccccc3C(=O)O)ccc2oc1=O
6. CN(C)C(=O)c1ccccc1SC(=S)NCc1ccccc1
7. O=C(c1cccs1)N(C(=S)N1CCN(c2ccccn2)CC1)c1ccccc1

[89.9, 84, 97.2, 83.8, 91.4, 98.1, 15.4]

Look up growth inhibition for the entries below, preserving their order.
1. CC1(C)C2CCC(C2)C1OC(=O)c1ccccc1C(=O)O (configuration not stated)
2. O=c1c2ccccc2sc2c1c(N(CCO)CCO)cc1ccccc12
3. N#CCCN(C(=S)Nc1cccc(C(F)(F)F)c1)C1CCCCC1
4. O=C1CSC(=S)N1Cc1ccccc1Cl
5. O=C1C(N=Nc2ccccc2)=C(O)C2C3C=CC(C3)C12 (configuration not stated)
6. Cc1cc2nc3n(c2cc1C)C(c1c(F)cccc1F)SC3 (configuration not stated)
7. CCCCOC(=O)C#CC(=O)OCCCC
8. O=c1[nH]ncc(SCc2ccccc2)c1SCc1ccccc1

1. 1.45
2. 97.5
3. 75.3
4. 98.9
5. 98.8
6. -6.85
7. 99.6
8. 97.2

Go through the items and report each one's growth inhibition.
1. CCCCc1ccc2c(c1)Nc1cc3ccccc3cc1N2
2. COC(=O)C1=C(C(=O)OC)C2(C)OC1C(=O)C21CC1 (configuration not stated)

86.3
88.3

Please state growth inhibition for every compound in the list that follows.
1. CC(C)(C)c1ccc(Br)c(CCC(=O)NO)c1
2. CC(=O)Nc1cc(Cl)c2c(c1)C(=O)c1ccccc1-2
3. S=C(N/N=C1/CCCC/C1=N/NC(=S)N1CCOCC1)N1CCOCC1
4. CC(C)(Cl)C(Cl)CC/C(CBr)=C(\Cl)CCl (configuration not stated)
5. CNCC(OB(c1ccccc1)c1ccccc1)c1ccccc1 (configuration not stated)
6. COC1(OC)C(C#N)(C#N)C2(C(=O)Nc3ccccc32)C1(OC)OC (configuration not stated)
7. CC1/C=C/C=C/CC/C=C/C=C/C=C/C=C/C(OC2OC(C)C(O)C(N)C2O)CC2OC(CC(O)C(O)CCC(O)CC(O)CC(O)CC(=O)OC(C)C(C)C1O)CC(O)C2C(=O)O (configuration not stated)
8. CC(=O)C(C=O)C(C)=O.CC(=O)CC(C)=O.CC(=O)CC(C)=O.[Ru]

1. 97
2. 91.8
3. 90.1
4. 86.7
5. -22.9
6. 15.4
7. 99.3
8. 36.9

###

Test: NCI Yeast Anticancer Drug Screen. Data for the rad50 strain (AID 155);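 note: 0% = growth of vehicle-only cultures of the same strain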
Settings: S. cerevisiae rad50 strain growth inhibition; at 50.0 µM (retest, dose inferred, filed as 5.0); hits give high values
The panel holds about 79,000 compounds, 15% with a hit somewhere; the sample as a whole holds those more often.
measure: growth inhibition (%)
Answers are plain numbers, in %.

1) CC(C)NC(=O)O/N=C1\CCC2[C@@H]3CC=C4C[C@@H](OC(=O)NC(C)C)CC[C@]4(C)C3CC[C@]12C (some centres undefined) ... 77

// for each molecule below, give its growth inhibition
1. C=Cc1ccccc1C1(O)C=CC(OC)(OC)C=C1
2. COc1cc2c3c(c4ccc(OC)c(OC)c4c2cc1OC)CN1CCC[C@@H]1C3

25
95

// for each molecule below, give its growth inhibition
1. O=c1c(Cl)c(Cl)oc(Cl)c1Cl
2. O=c1c(Cl)nsnc1Cl
3. Oc1ccccc1C(c1cc2c(cc1O)OCO2)N1CCOCC1 (centres undefined)
4. C/C(CCn1[nH]c(=O)ccc1=O)=N\NS(=O)(=O)c1ccc(C)cc1
5. O=[N+]([O-])c1cc(Cc2cc([N+](=O)[O-])c3cccnc3c2O)c(O)c2ncccc12
6. CC(/C=C/c1ccc(Cl)cc1)=N\NC(N)=S
7. CCCCC(CC)COC(=O)c1cc2ccccc2oc1=O (centres undefined)
8. O=C(O)C1C(C(=O)O)C2C(=O)C=CC1N2Cc1ccccc1 (centres undefined)

98
100
99
-3
98
44
7
46

Lab note: each molecule below needs its growth inhibition filled in.
1. Cc1c[n+](CC(=O)c2ccc(I)cc2)c(C)s1
2. CCCCCCCCCCCCCCCCN[Si](NCCCCCCCCCCCCCCCC)(NCCCCCCCCCCCCCCCC)NCCCCCCCCCCCCCCCC
3. COc1ccc(C2SCC(=O)N2c2ccc(-c3ccc(-n4c(-c5ccccc5)nc5ccccc5c4=O)cc3)cc2)cc1 (centres undefined)
4. O=C1CCC/C1=C\c1ccccc1
5. CCCC(O)[C@@]1(CC)CC(C)C(O)(C2(C)C[C@H](C)[C@@H](C(CC)C(=O)C(C)[C@@H](O)[C@H](C)C3OC(O)(C(CC)C(=O)O)[C@@H](C)C(O)C3CC)O2)O1 (some centres undefined)
6. O=C(O)/C=C/C(=O)c1ccccc1
7. COc1ccc(CSC(=S)Nc2cc(C)c(C)cc2[N+](=O)[O-])cc1

[13, 96, 33, 15, -13, 76, 93]

Give me growth inhibition for each of these molecules, listed below.
1. CCOC(=O)c1ccccc1NC(OCC)C(=O)c1ccccc1 (centres undefined) (tested in a mixture with another compound)
2. C=CC1(NC(=O)c2ccccc2)CCC(C(C)(C)C)CC1 (centres undefined)
3. Oc1ccc(N=Nc2ccc(Cl)cc2)cc1O
4. CCOC(=O)CNC(=O)CNC(=O)CNC(c1ccccc1)(c1ccccc1)c1ccccc1
5. CC1CCC(C)(C)c2cc([N+](=O)[O-])cc([N+](=O)[O-])c21 (centres undefined)
6. CN(C)C(=S)/N=c1\ssc(=S)n1C
7. COc1ccc2nc(-c3ccc(Cl)cc3)[nH]c2c1

1: 70; 2: 96; 3: 98; 4: 56; 5: 99; 6: 0; 7: 88
